# System: EKVX
# ASSAY_PROTOCOL: relative viability (nuclei count vs DMSO), 5 days (fraction); higher = more cells survive
# CONDITION_INFO: first compound 0.001 µM
PROPERTY: relative viability
Answers are plain numbers.

- COMPOUND: "Cc1cn(-c2cc(NC(=O)c3ccc(C)c(Nc4nccc(-c5cccnc5)n4)c3)cc(C(F)(F)F)c2)cn1 [Nilotinib] + Cc1nc(NC(=O)N2CCC[C@H]2C(N)=O)sc1-c1ccnc(C(C)(C)C(F)(F)F)c1 [Alpelisib] (partner 2 µM)"
  REPORTED_VALUE: 0.813
- COMPOUND: "Cc1cn(-c2cc(NC(=O)c3ccc(C)c(Nc4nccc(-c5cccnc5)n4)c3)cc(C(F)(F)F)c2)cn1 [Nilotinib] + O=C(CCCCCCC(=O)Nc1ccccc1)NO [Vorinostat] (partner 1 µM)"
  REPORTED_VALUE: 0.65
- COMPOUND: "Cc1cn(-c2cc(NC(=O)c3ccc(C)c(Nc4nccc(-c5cccnc5)n4)c3)cc(C(F)(F)F)c2)cn1 [Nilotinib] + CCNC(=O)c1noc(-c2cc(C(C)C)c(O)cc2O)c1-c1ccc(CN2CCOCC2)cc1 [Luminespib] (partner 0.01 µM)"
  REPORTED_VALUE: 0.839

For each of the compounds below, note its relative viability.
1. Cc1cn(-c2cc(NC(=O)c3ccc(C)c(Nc4nccc(-c5cccnc5)n4)c3)cc(C(F)(F)F)c2)cn1 [Nilotinib] + Cc1cc(Nc2cc(N3CCN(C)CC3)nc(Sc3ccc(NC(=O)C4CC4)cc3)n2)n[nH]1 [Tozasertib] (partner 0.1 µM)
2. Cc1cn(-c2cc(NC(=O)c3ccc(C)c(Nc4nccc(-c5cccnc5)n4)c3)cc(C(F)(F)F)c2)cn1 [Nilotinib] + NC(=O)Nc1cc(-c2cccc(F)c2)sc1C(=O)N[C@H]1CCCNC1 [AZD7762] (partner 0.2 µM)

Result:
[0.368, 0.599]

###

# Test system: NCI-H661
# ASSAY_PROTOCOL: relative viability (nuclei count vs DMSO), 5 days (fraction); higher = more cells survive
# CONDITION_INFO: first compound 0.8 µM
Kindly state relative viability for each of the entries shown.
Numbers only.

Worked examples, 3 compounds total:
- COMPOUND: "Nc1cccc2c1CN(C1CCC(=O)NC1=O)C2=O (centres undefined) [Lenalidomide] + CS(=O)(=O)N1CCN(Cc2cc3nc(-c4cccc5[nH]ncc45)nc(N4CCOCC4)c3s2)CC1 [Pictilisib] (partner 1 µM)"
  relative viability: 0.369
- COMPOUND: "Nc1cccc2c1CN(C1CCC(=O)NC1=O)C2=O (centres undefined) [Lenalidomide] + Cc1cc(Nc2cc(N3CCN(C)CC3)nc(Sc3ccc(NC(=O)C4CC4)cc3)n2)n[nH]1 [Tozasertib] (partner 0.1 µM)"
  relative viability: 0.368
- COMPOUND: "Nc1cccc2c1CN(C1CCC(=O)NC1=O)C2=O (centres undefined) [Lenalidomide] + Nc1ncn([C@H]2C[C@H](O)[C@@H](CO)O2)c(=O)n1 [Decitabine] (partner 2 µM)"
  relative viability: 0.548

Here's the next entry for you.
Q: Requested read-out: relative viability. Entry: Nc1cccc2c1CN(C1CCC(=O)NC1=O)C2=O (centres undefined) [Lenalidomide] + O=C(CCCCCCC(=O)Nc1ccccc1)NO [Vorinostat] (partner 1 µM)
Result: 0.828
